Give measured inhibition for each item. Keep answers brief.
- assayed_target: UniProt:P14061
- Sequence (whole entry): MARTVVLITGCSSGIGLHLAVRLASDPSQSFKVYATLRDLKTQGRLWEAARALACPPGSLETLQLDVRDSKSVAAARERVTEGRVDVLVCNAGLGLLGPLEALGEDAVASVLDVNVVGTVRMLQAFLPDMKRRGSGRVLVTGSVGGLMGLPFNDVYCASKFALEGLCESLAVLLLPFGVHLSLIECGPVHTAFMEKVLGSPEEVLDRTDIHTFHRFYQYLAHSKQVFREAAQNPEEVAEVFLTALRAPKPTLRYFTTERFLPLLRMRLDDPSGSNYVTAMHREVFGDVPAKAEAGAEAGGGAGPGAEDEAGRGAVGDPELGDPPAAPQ
- method: Inhibition of 17beta-HSD1 over-expressed in intact T47D cells at 1 uM
- Assay type: cell-based
Answer with a number only, understood to be in %.

Enquiry: Give the measured inhibition of CCCCN(C)C(=O)CCCCCC[C@@H]1C[C@@H]2[C@H](CC[C@]3(C)[C@@H](O)CC[C@@H]23)c2cc(OC)c(O)cc21 .
Return: 32

Enquiry: Please answer likewise for CCCCN(C)C(=O)CCCCCC[C@H]1C[C@@H]2[C@H](CC[C@]3(C)[C@@H](O)CC[C@@H]23)c2ccc(O)cc21
Return: 21

Enquiry: Also need CCCCN(C)C(=O)CCCCCS[C@@H]1C[C@@H]2[C@H](CC[C@]3(C)[C@@H](O)CC[C@@H]23)c2ccc(O)cc21 , thanks.
Return: 82

Enquiry: Now this one: CCCCN(C)C(=O)CCCCCC[C@H]1C[C@@H]2[C@H](CC[C@]3(C)C(=O)CC[C@@H]23)c2ccc(O)cc21
Return: 19

The measured values listed here are drawn from ChEMBL document CHEMBL1144570.
